tested on: IgG1-DS5 (human IgG1/kappa framework, scFv phage library derived); assay: SPR steady state; conditions: 2'-O-methyl; ELISA: streptavidin or anti-FAM plates, PBS/0.05% Tween 20 washes, BSA or Blotto block; EMSA: PBS, 1 h, room temperature, 20 uM oligo, 25 ng/uL IgG, 5% …
Recorded endpoint: pKd
// pKd: -log10(molar conc.)

// lookup pKd for UUUUUCCUGUGUCCUGAAGAAAGCA / UUUCUUCAG [T2 duplex without biotin]
6.36

----------
test system: IgG1-DS5 (human IgG1/kappa framework, scFv phage library derived); assay: ELISA; conditions: 2'-O-methyl; ELISA: streptavidin or anti-FAM plates, PBS/0.05% Tween 20 washes, BSA or Blotto block; EMSA: PBS, 1 h, room temperature, 20 uM oligo, 25 ng/uL IgG, 5% …
Recorded endpoint: binding signal (% of full complex ELISA slope)
No unit in the answer, only the number.

Guide cases for binding signal (% of full complex ELISA slope), answers given:
Sequence content	Recorded number
UUUUUCCUGUGUCCUGAAGAAAGCA / UUUCUUCAGGACACAG [T1 TempTr1:oligo-1]	100
UUUUUCCUGUGUCCUGAAGAAAGCAAAGACAUCUGGACAU / AUGUCUUUGCUUUCUUCAGG [D6 template:contig. complement-1]	0.8
UUUUUCCUGUGUCCUGAAGAAA / UUUCUUCAG [T3 TempTr2:9-co]	100
UUUUUCCUGUGUCCUGAAGAAAGCAAAGACAUCUGGACAU / UUUCUUCAGGACACAG [D3 template:oligo-1]	76.1
UUUUUCCUGUGUCCUGAAGAAAGCAAAGACAUCUGGACAU / UUUCUUCAGGACACAG / GUCCAGAUGUCUUUGC [D5 template:oligo-1:oligo-2]	45

# input sequence: UUUUUCCUGUGUCCUGAAGAAAGCA / UUUCUUCAG [T2 TempTr1:9-co] ; wanted: its binding signal (% of full complex ELISA slope)
100

What do we get for UUUUUCCUGUGUCCUGAAGAAAGCAAAGACAUCUGGACAU / GUCCAGAUGUCUUUGC [D4 template:oligo-2] ?
0
